test_target: S1P4 (Homo sapiens)
Construct: expressed in transfected cells
Sequence (O95977 1-384): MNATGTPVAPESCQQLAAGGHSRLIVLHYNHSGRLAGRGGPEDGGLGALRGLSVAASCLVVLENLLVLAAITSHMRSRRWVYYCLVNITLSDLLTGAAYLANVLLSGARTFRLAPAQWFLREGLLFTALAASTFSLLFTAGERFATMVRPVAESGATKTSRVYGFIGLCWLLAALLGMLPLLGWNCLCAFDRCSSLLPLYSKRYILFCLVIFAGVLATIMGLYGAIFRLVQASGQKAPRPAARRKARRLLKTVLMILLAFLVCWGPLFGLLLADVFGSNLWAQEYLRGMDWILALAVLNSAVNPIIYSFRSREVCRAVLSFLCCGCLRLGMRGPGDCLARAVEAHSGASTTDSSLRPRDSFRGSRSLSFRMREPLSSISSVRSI
assay_procedure: GTPγS binding assay, S1P4
Type: biochemical
test_conditions: CHO cells expressing S1P4
readout: EC50 (nM)

| compound | readout | display_unit | experimental_result |
| --- | --- | --- | --- |
| NC(CNC(=O)c1cc2c(-c3ccccc3Cc3ccccc3)cccc2[nH]1)C(=O)O (stereo not shown) | EC50 | nM | 250 |

---

test_target: S1P2 (Homo sapiens, UniProt O95136)
Construct: expressed in transfected cells
Sequence (O95136 whole entry): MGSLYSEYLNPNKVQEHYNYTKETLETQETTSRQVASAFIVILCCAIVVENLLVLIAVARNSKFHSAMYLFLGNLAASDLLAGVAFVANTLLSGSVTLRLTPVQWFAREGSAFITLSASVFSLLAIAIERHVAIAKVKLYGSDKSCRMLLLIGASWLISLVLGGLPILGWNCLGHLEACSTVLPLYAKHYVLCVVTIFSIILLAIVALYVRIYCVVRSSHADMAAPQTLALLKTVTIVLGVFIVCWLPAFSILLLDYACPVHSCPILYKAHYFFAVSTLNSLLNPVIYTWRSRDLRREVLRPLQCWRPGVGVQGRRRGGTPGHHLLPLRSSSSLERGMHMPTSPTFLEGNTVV
assay_procedure: Calcium mobilization assay, CHO cells expressing S1P2
Assay type: cell-based
Description: Human S1P1 (GenBank™ accession number M31210) and S1P3 (GenBank™ accession number X83864) cDNA containing the myc sequence in front to the human S1P1 and S1P3 sequences are inserted in the pcDNA 3.1 vector. The vectors are sequenced to completion to confirm the correctness of the construct. The human S1P2 (GI: 4090955, TREMBL: 0195136) is cloned by a PCR based method. […] The amplified product of around 1100 bp is analyzed by standard agarose gel-electrophoresis. […]

| molecule | test_target | EC50 |
| --- | --- | --- |
| NC(CNC(=O)c1cc2c(-c3ccccc3Cc3ccccc3)cccc2[nH]1)C(=O)O (stereo not shown) [Example 2] | S1P2 (Homo sapiens, UniProt O95136) | > 6 µM |

---

test_target: S1P4 (Homo sapiens, UniProt O95977)
Construct: expressed in transfected cells
assay_procedure: Calcium mobilization assay, CHO cells expressing S1P4
Format: cell-based
readout: EC50

| molecule | readout | experimental_result |
| --- | --- | --- |
| NC(CNC(=O)c1cc2c(-c3ccccc3Cc3ccccc3)cccc2[nH]1)C(=O)O (stereo not shown) [Example 2] | EC50 | 0.01 µM |

---

test_target: S1P5 (Homo sapiens, UniProt Q9H228)
Construct: expressed in transfected cells
Sequence (Q9H228 whole entry): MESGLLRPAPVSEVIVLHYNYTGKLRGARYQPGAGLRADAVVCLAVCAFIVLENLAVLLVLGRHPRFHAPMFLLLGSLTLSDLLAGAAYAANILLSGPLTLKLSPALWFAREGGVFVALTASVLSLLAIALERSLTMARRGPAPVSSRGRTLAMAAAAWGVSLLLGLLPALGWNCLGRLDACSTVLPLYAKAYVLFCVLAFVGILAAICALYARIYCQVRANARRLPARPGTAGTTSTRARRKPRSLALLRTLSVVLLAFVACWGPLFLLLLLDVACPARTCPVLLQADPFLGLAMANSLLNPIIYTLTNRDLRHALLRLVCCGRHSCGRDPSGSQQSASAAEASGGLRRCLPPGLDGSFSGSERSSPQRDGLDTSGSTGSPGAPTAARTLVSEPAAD
assay_procedure: GTPγS binding assay, S1P5
Format: biochemical
test_conditions: CHO cells expressing S1P5
pEC50: −log10 of the molar value.

| compound | pEC50 |
| --- | --- |
| NC(CNC(=O)c1cc2c(-c3ccccc3Cc3ccccc3)cccc2[nH]1)C(=O)O (stereo not shown) [Example 2] | < 5.00 |

---

test_target: S1P1 (Homo sapiens, UniProt P21453)
Construct: expressed in transfected cells
Sequence (P21453 whole entry): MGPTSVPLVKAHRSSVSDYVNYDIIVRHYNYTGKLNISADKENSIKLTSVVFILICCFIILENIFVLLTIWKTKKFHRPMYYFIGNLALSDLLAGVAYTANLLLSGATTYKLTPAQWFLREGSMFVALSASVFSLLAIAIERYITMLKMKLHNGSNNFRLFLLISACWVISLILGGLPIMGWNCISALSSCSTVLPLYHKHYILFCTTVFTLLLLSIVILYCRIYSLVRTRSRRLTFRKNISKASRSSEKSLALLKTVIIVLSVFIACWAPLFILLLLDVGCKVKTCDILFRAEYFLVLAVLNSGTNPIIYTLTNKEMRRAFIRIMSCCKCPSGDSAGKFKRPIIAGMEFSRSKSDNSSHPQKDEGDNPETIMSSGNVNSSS
assay_procedure: Calcium mobilization assay, CHO cells expressing S1P1
Assay type: cell-based
pEC50: −log10 of the molar value.

| compound | pEC50 |
| --- | --- |
| NC(CNC(=O)c1cc2c(-c3ccccc3Cc3ccccc3)cccc2[nH]1)C(=O)O (stereo not shown) | < 5.22 |
